Assay: yeast display, Sf9 membrane polyspecificity reagent, FACS + sequencing; frameworks hold sequencing errors
assay-metric: polyreactivity (PSR sort gate)

As a guide, the following entries are already answered.
QVQLVESGGGLVQAGGSLRLSCAASGRIFYGYAMGWYRQAPGKERELVASISRRGSSTYYADSVKGRFTISRDNAKNTVYLQMNSLKPEDTAVYYCAKYTVQYAISHYDYWGQGTQVTVSS = high polyreactivity
QVQLVESGGGLVQAGGSLRLSCAASGSIFYYNAKGWYRQAPGKERELVAGIRRSGDSTYYADSVKGRFTISRDNAKNTVYLQLNRLKPEDTAVYYCAADRVYEASQGYTYFDYDYWGQGTQVTVSS = low polyreactivity
QVQLVETGGGLVQAGGSLRLSCAASGITFFAYAMGWYRQAPGKERELVAAISTGGSTNYADSVKGRFTISRDNAKNTVYLQMNSLKPEDTAVYYCGSDRSDLAEEGYAGYDYWGQVTQVTVSS = low polyreactivity
QVQLVESGGGLVQAGGSLRLSCAASGSSFWYNAMGWYRQAPGKERELVATISSRGDGTYYADSVKGRFTISRDNAKNTVYLQMNSLKPEDTAVYYCNKYRQQGWEFDYWGQGTQVTVSS = high polyreactivity

[ask] Entry QVQLVESGGGLVQAGGSLRLSCAASGRTFANYAMGWYRQAPGKERELVAAISSGGNTYYADSVKGRFTISRDNAKNTVYLQMNSLKPEDTAVYYCNAPWYYRYQRNEYGYWGQGTQVTVSS : reported polyreactivity (PSR sort gate) = ?
[reply] high polyreactivity

----------
Test: yeast display, Sf9 membrane polyspecificity reagent, FACS + sequencing; frameworks hold sequencing errors
assay-metric: polyreactivity (PSR sort gate)

As a guide, the following entries are already answered.
QVQLVESGGALVQAGGSLRLSCAASGRIFRSYVMGWYRQAPGKERELVATITGGGRTNYADSVKGRFTISRDNAKNTVYLQMTSLKPEDTAVYYCAGVYRWWPFHAFDYWGQGTQVTVSS = high polyreactivity
QVQLVESVGGLVQAGGSLRLSCAASGSITVANAMGWYSQAPGKESELVAAITDSGDDTYYADSVKGRFTNSRDNAKNTVYLLMNSLKAEDTAVYYCAVEAWSVPPYDYWGQGTQVTVSS = low polyreactivity
QVQLVESGGGLVQAGGSLRLSCAASGYIFYYYAMGWYRQAPGKERELVAAITFSGGSTYYADSVKGRFTISRDNAKNNVYLQMNRLKPEDTAGYYCAKVELRDAAELGSDEYDYWGQGTQVTVSS = low polyreactivity
QVQLVESGGGLVQAGGSLRLSCAASGSIFRRNAMGWYRQAPGKERELVATITSDGSTDYADSVKGRFTISRDNAKNTVYLQMNSLKPEDTAVYYCAADRGVYDPGDYWGQGTQVTVSS = low polyreactivity

[ask] Entry QVQLVESGGGLVQAGGSLRLSCAASGSTFKYYAMGWYRQAPGKERELVARISIRGGSTYYADSVKGRFTISRDNAKNTVYLQMNSLKPEDTAVYYCAAVGYFGGYRYYYWGQGTQVTVSS : reported polyreactivity (PSR sort gate) = ?
[reply] high polyreactivity

----------
Test: yeast display, Sf9 membrane polyspecificity reagent, FACS + sequencing; frameworks hold sequencing errors
assay-metric: polyreactivity (PSR sort gate)

QVQLVESGGGLVQAGGSLRLSCAASGSIFTSNAMGWYRQAPGKERELVAAITSDGAITYADSVKGRFTISRDNAKNTVYLQMNSLKPEDTAVYYCATEIEYYVGSVADMGYWGQGTQVTVSS = low polyreactivity
QVQLVESGGGLVQAGGSLRLSCAASGRIFRRYAMGWYRQAPGKERELVAAISSGGSTYYADSVKGRFTISRDNAKKTVYLQMNSLKPEDTAVYYCNAKVGAYLNYGYWGQGTQVTVSS = low polyreactivity
QVQLVESGGGLVQAGGSLRLSCAASGSISDYYAMGWYRQAPGKERELVAAISWDGGSTYYADTVKGRFTISRDNAKNTVYLQMNSLKPEDTAVYYCNAGSGASVGNHILYDYWGQGTQVTVSS = low polyreactivity

// provenance: the nanobody polyreactivity screen of Harvey et al. (2022)
